System: MDA-MB-231
Assay: drug sensitivity score (DSS), CellTiter-Blue viability (DSS (AUC-based score)); higher = stronger viability inhibition; extreme values may be limits of the assay
Settings: incubation time: 72 h
assay-readout: drug sensitivity score
Please state the value as a number alone, without comment.

Worked cases, drug sensitivity score given:
{"smiles-data": "C=CCNC1=C2C[C@@H](C)C[C@H](OC)[C@H](O)[C@@H](C)/C=C(\\C)[C@H](OC(N)=O)[C@@H](OC)/C=C\\C=C(/C)C(=O)NC(=CC1=O)C2=O", "drug sensitivity score": 9.87}
{"smiles-data": "CS(=O)(=O)c1ccc(C(=O)Nc2ccc(Cl)c(-c3ccccn3)c2)c(Cl)c1", "drug sensitivity score": 0}
{"smiles-data": "Nc1nc(Cl)nc2c1ncn2[C@H]1C[C@H](O)[C@@H](CO)O1", "drug sensitivity score": 7.23}

# get_value(readout= drug sensitivity score, system= MDA-MB-231) for COc1cccc2cc(-c3nc([C@H]4CC[C@H](C(=O)O)CC4)n4ncnc(N)c34)[nH]c12 6.73

---

Tested on: HCC1599
Assay: drug sensitivity score (DSS), CellTiter-Blue viability (DSS (AUC-based score)); higher = stronger viability inhibition; extreme values may be limits of the assay
Settings: incubation time: 72 h
Examples of compounds with documented drug sensitivity score follow.

Worked cases, drug sensitivity score given:
{"compound": "S=c1[nH]cnc2nc[nH]c12", "drug sensitivity score": 0}
{"compound": "COc1cccc2c1C(=O)c1c(O)c3c(c(O)c1C2=O)C[C@@](O)(C(=O)CO)C[C@@H]3O[C@H]1C[C@H](N)[C@H](O)[C@H](C)O1", "drug sensitivity score": 3.59}
{"compound": "C[C@]1(c2nc3c(C(N)=O)cccc3[nH]2)CCCN1", "drug sensitivity score": 0}

Then this compound:
# get_value(readout= drug sensitivity score, system= HCC1599) for C=CCNC1=C2C[C@@H](C)C[C@H](OC)[C@H](O)[C@@H](C)/C=C(\C)[C@H](OC(N)=O)[C@@H](OC)/C=C\C=C(/C)C(=O)NC(=CC1=O)C2=O 16.3

---

Examples of compounds with documented normalised response follow.
Test system: CAL-85-1
Test: normalised response (% of control), CellTiter-Glo; higher = more viable cells (100 = DMSO, 0 = benzethonium chloride kill control)
Conditions: incubation time: 72 h
Give the quantity in %, number only.

{"compound": "N#CC[C@H](C1CCCC1)n1cc(-c2ncnc3[nH]ccc23)cn1 [Ruxolitinib] (1 nM)", "meas-value": 101}

Then this compound:
Could you tell me which normalised response is on file for Cc1c2oc3c(C)ccc(C(=O)N[C@@H]4C(=O)N[C@H](C(C)C)C(=O)N5CCC[C@H]5C(=O)N(C)CC(=O)N(C)[C@@H](C(C)C)C(=O)O[C@@H]4C)c3nc-2c(C(=O)N[C@@H]2C(=O)N[C@H](C(C)C)C(=O)N3CCC[C@H]3C(=O)N(C)CC(=O)N(C)[C@@H](C(C)C)C(=O)O[C@@H]2C)c(N)c1=O [Dactinomycin] (100 nM) ? 6.91

---

Examples of compounds with documented normalised response follow.
Tested on: MDA-MB-468
Test: normalised response (% of control), CellTiter-Glo; higher = more viable cells (100 = DMSO, 0 = benzethonium chloride kill control)
Conditions: incubation time: 72 h
Give the quantity in %, number only.

Worked cases, normalised response given:
{"compound": "CCN1CCN(c2ccc(Nc3cc(N(C)C(=O)Nc4c(Cl)c(OC)cc(OC)c4Cl)ncn3)cc2)CC1 [NVP-BGJ398] (1 nM)", "study-target": "MDA-MB-468", "normalised response / %": 100}
{"compound": "CO[C@H]1C[C@@H]2CC[C@@H](C)[C@@](O)(O2)C(=O)C(=O)N2CCCC[C@H]2C(=O)O[C@H]([C@H](C)C[C@@H]2CC[C@@H](OC(=O)C(C)(CO)CO)[C@H](OC)C2)CC(=O)[C@H](C)/C=C(\\C)[C@@H](O)[C@@H](OC)C(=O)[C@H](C)C[C@H](C)/C=C/C=C/C=C/1C [Temsirolimus] (0.01 nM)", "study-target": "MDA-MB-468", "normalised response / %": 106}
{"compound": "CN1CCC(COc2cnc(-c3cccc(Cn4nc(-c5cccc(C#N)c5)ccc4=O)c3)nc2)CC1 (0.1 nM)", "study-target": "MDA-MB-468", "normalised response / %": 96.9}
{"compound": "Cc1c2oc3c(C)ccc(C(=O)N[C@@H]4C(=O)N[C@H](C(C)C)C(=O)N5CCC[C@H]5C(=O)N(C)CC(=O)N(C)[C@@H](C(C)C)C(=O)O[C@@H]4C)c3nc-2c(C(=O)N[C@@H]2C(=O)N[C@H](C(C)C)C(=O)N3CCC[C@H]3C(=O)N(C)CC(=O)N(C)[C@@H](C(C)C)C(=O)O[C@@H]2C)c(N)c1=O [Dactinomycin] (100 nM)", "study-target": "MDA-MB-468", "normalised response / %": 3.22}
{"compound": "C[C@]1(c2nc3c(C(N)=O)cccc3[nH]2)CCCN1 [Veliparib] (1000 nM)", "study-target": "MDA-MB-468", "normalised response / %": 104}
{"compound": "COc1cccc2cc(-c3nc([C@H]4CC[C@H](C(=O)O)CC4)n4ncnc(N)c34)[nH]c12 [OSI-027] (1000 nM)", "study-target": "MDA-MB-468", "normalised response / %": 84.2}
{"compound": "CC[C@]1(O)C[C@@H]2CN(CCc3c([nH]c4ccccc34)[C@@](C(=O)OC)(c3cc4c(cc3OC)N(C)[C@H]3[C@@](O)(C(=O)OC)[C@H](OC(C)=O)[C@]5(CC)C=CCN6CC[C@]43[C@@H]65)C2)C1 [Vinblastine] (100 nM)", "study-target": "MDA-MB-468", "normalised response / %": 34.7}
{"compound": "CCN1CCN(c2ccc(Nc3cc(N(C)C(=O)Nc4c(Cl)c(OC)cc(OC)c4Cl)ncn3)cc2)CC1 [NVP-BGJ398] (100 nM)", "study-target": "MDA-MB-468", "normalised response / %": 97.1}

# get_value(readout= normalised response, system= MDA-MB-468) for O=C(c1ccc(C(=O)N2CCC(N3CCCC3)CC2)c(Nc2ccccc2)c1)N1CCC(N2CCCC2)CC1 [UNC1215] (3000 nM) 91.6

CN(C)C/C=C/C(=O)Nc1cc2c(Nc3ccc(F)c(Cl)c3)ncnc2cc1O[C@H]1CCOC1 [Afatinib] (0.1 nM) ? 100

CC(=O)O[C@]1(C(C)=O)CC[C@H]2[C@@H]3C=C(C)C4=CC(=O)CC[C@]4(C)[C@H]3CC[C@@]21C [Megestrol acetate] (10 nM) ? 107

CN1CCC(COc2cnc(-c3cccc(Cn4nc(-c5cccc(C#N)c5)ccc4=O)c3)nc2)CC1 (100 nM) ? 90.9

CC[C@]1(O)C[C@@H]2CN(CCc3c([nH]c4ccccc34)[C@@](C(=O)OC)(c3cc4c(cc3OC)N(C)[C@H]3[C@@](O)(C(=O)OC)[C@H](OC(C)=O)[C@]5(CC)C=CCN6CC[C@]43[C@@H]65)C2)C1 [Vinblastine] (1 nM) ? 97.9
